# Tested on: OVCAR-4 ovarian
# assay_name: NCI tumour cell line growth inhibition, 48 h; in the data active = GI50 below about 0.43 µM; inactive = the rest
Outcomes: YES (active), NO (inactive)

1. C(=C1c2ccccc2-c2ccccc21)c1ccccn1: NO
2. CS(=O)(=O)CCNCc1ccc(-c2ccc3ncnc(Nc4ccc(OCc5cccc(C(F)(F)F)c5)cc4)c3c2)o1: NO
3. CCc1c2c(nc3cc4c(cc13)OCO4)-c1cc3c(c(=O)n1C2)COC(=O)[C@@]3(CC)OC(=O)CN: YES
4. O=C(COc1cccc(/C=C2\COc3ccccc3C2=O)c1)Nc1nccs1: NO
5. COc1ccc2c(c1)c(C1(c3cn(C)c4ccc(OC)cc34)C(=O)Nc3ccc(F)cc31)cn2C: NO
6. CC(=O)O[C@H]1CC[C@]2(C)[C@H]3CC[C@@H]4[C@H]5[C@H](C(C)C)CC[C@]5(C(=O)OCC(CO)(CO)N=C(N)N)CC[C@@]4(C)[C@]3(C)CC[C@H]2C1(C)C: NO
7. COC(=O)CCC(=O)c1c(C)[nH]c(/C=C2\N=C(c3ccc[nH]3)C=C2OC)c1C: NO
8. COc1cc(CSc2nc3ccc(C)cc3c(=O)n2Cc2ccccc2)cc(OC)c1OC: NO
9. CN1C(=O)CNC(=O)[C@H](NC(=O)c2nc3ccccc3cc2O)CSSC[C@H]1C(=O)NCCc1nc2ccccc2cc1O: NO
10. CCCCC(=O)N/N=C/c1cc(I)cc(I)c1O: NO
11. C=CC1CC12C(=O)C1OC2(C)C2C(=O)c3c(ccc4c3ccc3ccccc34)C(=O)C12 (configuration not stated): NO
12. CCCN(CCC)c1ccc(CO)c(C)c1: NO

---

# System: M14 melanoma
# assay_name: NCI tumour cell line growth inhibition, 48 h
The entries below are paired with their reported TGI.
test_readout: TGI

1) CN1C(=O)CNC(=O)[C@H](NC(=O)c2nc3ccccc3cc2O)CSSC[C@H]1C(=O)NCCc1nc2ccccc2cc1O: 35.4 µM
2) N=C(N)SCCc1cn2ccccc2n1: > 100 µM
3) CC(C)C(=O)N[C@@H](C)C(=O)N(Cc1ccc2ccccc2c1)N=O: > 100 µM
4) CN1C(c2ccccc2)=CC(=O)C(O)=C(c2ccccc2)S1(=O)=O: > 100 µM
5) COc1cc(OC)c2c(=O)c(O)c(-c3ccc(OC)c(OC)c3)oc2c1: > 31.6 µM
6) COc1ccc(C(O)CNC(=O)c2ccccc2)cc1 (stereo unspecified): > 100 µM
7) O=C(Nc1c(-c2nc3ccccc3[nH]2)sc(=S)n1-c1ccccc1)c1ccccc1: > 100 µM
8) CC(=O)Oc1ccc2c(c1)c1c(=O)oc(N(C)C)nc1n2Cc1ccccc1: > 100 µM
9) CCOP(=O)(Nc1ccc(-c2ccccc2)cc1)OCC: > 100 µM
10) CCC[C@H](N[C@@H]1CCc2cc(F)cc(F)c2C1)C(=O)Nc1cn(C(C)(C)CNCC(C)(C)C)cn1: 26.9 µM
11) CCC1CC2CN3CCc4c([nH]c5c(-c6c(OC)ccc7c8c([nH]c67)[C@]6(C(=O)OC)CC7CC(CC)C6N(CC8)C7)c(O)ccc45)[C@](C(=O)OC)(C2)C13 (stereo partly specified): 78.2 µM

---

The entries below are paired with their reported TGI.
# Test system: SF-268 CNS
# assay_name: NCI tumour cell line growth inhibition, 48 h
test_readout: TGI

1) O=C(O)CSc1cc(-c2ccccc2)nc2ccccc12: > 100 µM
2) CC(ONC(=O)c1cc(C(F)(F)F)cc(C(F)(F)F)c1)C(=O)Nc1ccc(Cl)cc1 (stereo not drawn): > 67.9 µM
3) O=C(CSc1nc(=O)[nH]c2nc[nH]c12)Nc1ccccc1: > 100 µM
4) CC1CCCC2=C1C(c1ccc(Cl)cc1)n1c(s/c(=C\c3ccc(Cl)cc3)c1=O)=N2 (stereo not drawn): > 100 µM
5) CO[C@@H]1[C@@H](OC2OC(C)C(OC3CC(C)(O)C(OC(=O)CC(C)C)C(C)O3)C(N(C)C)C2O)[C@@H](CC=O)C[C@@H](C)C(=O)/C=C/C2O[C@H]2C[C@@H](C)OC(=O)C[C@H]1OC(C)=O (stereo partly drawn): > 100 µM
6) O=C(NO)c1coc2ccccc2c1=O: > 100 µM
7) CCOC(=O)/N=C(\N)SCc1ccccc1: > 100 µM
8) NNC(=O)c1c(Cl)c(Cl)c(Cl)c(Cl)c1-c1nc2ccccc2[nH]1: > 100 µM
9) CC(=O)O[C@H]1C[C@]2(C)C(CCC3O[C@@]32C)[C@@]2(CC(c3ccoc3)OC2O)[C@@H]1C (stereo partly drawn): > 100 µM
10) COc1cc(CSc2nc3ccc(C)cc3c(=O)n2Cc2ccccc2)cc(OC)c1OC: > 100 µM
11) N#Cc1[nH]c(=O)n(-c2ccc(Cl)cc2)c1N: > 10 µM
12) COc1ccc(/C=C2\CSC/C(=C\c3ccc(OC)c(OC)c3OC)C2=O)c(OC)c1OC: > 100 µM
13) O=C(COc1cccc(/C=C2\COc3ccccc3C2=O)c1)Nc1nccs1: 3.69 µM
14) O=C(CN1CCN(C(=O)OCc2ccccc2)CCN(CC(=O)N2CCCCC2)CCN(C(=O)OCc2ccccc2)CC1)N1CCCCC1: 31.8 µM
15) COC(CCP(=O)(c1ccccc1)c1ccccc1)(C(=O)c1ccccc1)c1ccccc1 (stereo not drawn): 21.9 µM
16) O=c1[nH]c2ccc(CC(=S)N3CCOCC3)cc2s1: > 100 µM
17) CC(=O)N1CC2Nc3ccccc3C2CC1CO (stereo not drawn): > 100 µM
18) COc1cc(OC)c2c(c1OC)OCC(Cc1ccc(O)cc1)C2=O (stereo not drawn): > 25 µM
19) NC1CC(=O)c2csc(Br)c21 (stereo not drawn): 44.1 µM
20) COc1cc2c(c(OC)c1OC)-c1[nH]ncc1CC2: > 100 µM
21) CCC[C@H](N[C@@H]1CCc2cc(F)cc(F)c2C1)C(=O)Nc1cn(C(C)(C)CNCC(C)(C)C)cn1: > 100 µM
22) CN1C(c2ccccc2)=CC(=O)C(O)=C(c2ccccc2)S1(=O)=O: > 100 µM
23) CN(C)CCn1c2ccccc2c2nc3cc4ccccc4cc3nc21: 6.26 µM
24) CC(=O)c1ccc(Oc2ccc(/C(C)=N\N=C(N)N)cc2)cc1: 16.1 µM
25) CC(C)C(=O)N[C@@H](C)C(=O)N(Cc1ccc2ccccc2c1)N=O: > 100 µM
26) O=C1c2cc3ccccc3cc2C2(c3ccc(Cl)cc3)N[C@H]3CCCC[C@@H]3N12 (stereo partly drawn): 39 µM
27) O=C(O)C1C2CC3C(OC(=O)C31)C2Br (stereo not drawn): > 100 µM
28) CCOP(=O)(Nc1ccc(-c2ccccc2)cc1)OCC: > 100 µM
29) Cn1c(COC(=O)N2CCCCC2)nc2c(N3CCOCC3)nc(-c3ccccc3)nc21: 2.71 µM
30) CC1(C)N=C(N)N=C(N)N1c1ccc(F)c(C(F)(F)F)c1: > 100 µM
31) O=C1c2ccccc2CC12Cc1cc3c(cc1C2=O)CCC3 (stereo not drawn): > 100 µM
32) CC(C)CCC1(O)O[C@H]2C[C@H]3[C@@H]4CCC5CC(=O)C=C[C@]5(C)[C@H]4CC[C@]3(C)[C@H]2[C@@H]1C (stereo partly drawn): 28.2 µM
33) O=C1C=C(Nc2ccccc2C(=O)CC(=O)C(=O)Nc2cccc(C(F)(F)F)c2)c2ccccc2C1=O: 73.3 µM
34) COC(=O)NCCc1[nH]nc2c1C(=O)C=C(Nc1ccccc1)C2=O: > 100 µM
35) Nc1nc(Cl)cc(NCC2(CO)CCC(Cc3ccccc3)C2)n1 (stereo not drawn): > 100 µM
36) COc1ccc(-c2n[nH]nc2-c2csc3ccccc23)cc1OC: 41.8 µM
37) CCCN1C(=O)CCC2=C1CCc1c2ccc(Cl)c1Cl: > 100 µM
38) O=C(Cn1nc(Br)c(Br)c1Br)c1ccccc1: > 100 µM
39) CC(C)C(C/C=C1/CC(CO)(COC(=O)CC(C(C)C)C(C)C)OC1=O)C(C)C (stereo not drawn): 23.1 µM
40) O=c1cc(Cl)nc[nH]1: > 100 µM
41) CC(c1ccc(Br)cc1)C(C(=O)O)C(=O)O (stereo not drawn): > 100 µM
42) CC1(O)CC2C(CC1SCCO)C2(C)C (stereo not drawn): > 100 µM
43) CC(=O)OC12c3ccccc3C1CCCCCC21OCCCO1 (stereo not drawn): > 100 µM
